System tested: CDK4/D1 (Homo sapiens, UniProt P11802)
Sequence (P11802 whole entry): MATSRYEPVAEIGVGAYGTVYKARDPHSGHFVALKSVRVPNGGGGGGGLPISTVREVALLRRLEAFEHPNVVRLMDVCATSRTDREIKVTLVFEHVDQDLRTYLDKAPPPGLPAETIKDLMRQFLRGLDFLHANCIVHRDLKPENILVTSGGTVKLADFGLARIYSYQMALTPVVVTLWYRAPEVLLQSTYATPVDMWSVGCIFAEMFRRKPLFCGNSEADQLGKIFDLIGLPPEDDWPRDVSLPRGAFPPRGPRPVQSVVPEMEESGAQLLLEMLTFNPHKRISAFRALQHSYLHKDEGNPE
Sequence (P24385 whole entry partner): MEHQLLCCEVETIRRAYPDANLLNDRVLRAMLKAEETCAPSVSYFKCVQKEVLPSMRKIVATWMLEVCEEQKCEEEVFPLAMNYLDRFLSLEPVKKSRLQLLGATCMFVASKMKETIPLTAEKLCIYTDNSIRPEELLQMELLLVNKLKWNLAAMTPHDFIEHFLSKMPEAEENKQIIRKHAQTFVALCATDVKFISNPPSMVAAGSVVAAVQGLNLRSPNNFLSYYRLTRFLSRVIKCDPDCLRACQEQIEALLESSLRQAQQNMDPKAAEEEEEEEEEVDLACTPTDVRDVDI
Protocol: ADP Glo Kinase assay CDK4/D1
Assay type: biochemical
Condition info: CDK4D1; compound at 10 μM; read-out: residual activity (%) at 10 μM CDK4D1
Endpoint name: remaining activity at 10 µM (%)

Molecule: Cc1cnc(NC2CCCC(N)C2)nc1-c1cnc2ccc(-c3ccccc3)cn12 (stereo not drawn) [Compound 94]
Test result: 25
--
Molecule: N[C@H]1CC[C@H](Nc2ncc(F)c(-c3cnc4ccc(-c5ccccc5)cn34)n2)CC1 [Compound 5]
Test result: 0
--
Molecule: COc1ccc(-c2ccc3ncc(-c4nc(N[C@H]5CC[C@H](N)CC5)ncc4Cl)n3c2)cc1 [Compound 82]
Test result: 20
--
Molecule: N[C@H]1CC[C@H](Nc2ncc(Cl)c(-c3cnc4ccc(-c5cncnc5)cn34)n2)CC1 [Compound 38]
Test result: 0
--
Molecule: Cc1cnc(NC2CCC(N3CCNC(=O)C3)CC2)nc1-c1cnc2ccc(Nc3cncnc3)cn12 (stereo not drawn) [Compound 168]
Test result: 22
--
Molecule: N[C@H]1CC[C@H](Nc2ncc(Cl)c(-c3cnc4ccc(C(F)(F)F)cn34)n2)CC1 [Compound 13]
Test result: 0
--
Molecule: COCCN[C@H]1CC[C@@H](Nc2ncc(C)c(-c3cnc4ccc(-c5ccccc5)cn34)n2)CC1 [Compound 130]
Test result: 23
--
Molecule: Cc1cnc(N[C@H]2CC[C@H](N)CC2)nc1-c1cnc2ccc(-c3ccc(S(=O)(=O)N(C)C)cc3)cn12 [Compound 62]
Test result: 63
--
Molecule: Cc1cnc(N[C@H]2CC[C@H](N)CC2)nc1-c1cnc2cc(F)c(-c3ccccc3)cn12 [Compound 159]
Test result: 43
--
Molecule: CN1CCC(Nc2ncc(F)c(-c3cnc4ccc(-c5ccccc5)cn34)n2)CC1 [Compound 144]
Test result: 20
--
Molecule: N[C@H]1CC[C@H](Nc2ncc(Cl)c(-c3cnc4c(-c5cccnc5)cc(C(F)(F)F)cn34)n2)CC1 [Compound 86]
Test result: 25
--
Molecule: Cc1cnc(N[C@H]2CC[C@H](C)CC2)nc1-c1cnc2ccc(Nc3cncnc3)cn12 [Compound 152]
Test result: 20
--
Molecule: CN1CCC(N[C@H]2CC[C@H](Nc3ncc(F)c(-c4cnc5ccc(-c6ccccc6)cn45)n3)CC2)CC1 [Compound 160]
Test result: 0
--
Molecule: CN1CCC(Nc2ncc(F)c(-c3cnc4ccc(-c5ccc(S(=O)(=O)N(C)C)cc5)cn34)n2)CC1 [Compound 148]
Test result: 70
--
Molecule: N[C@H]1CC[C@H](Nc2ncc(Cl)c(-c3cnc4ccc(NCc5ccc(F)cc5)cn34)n2)CC1 [Compound 41]
Test result: 40

* * *

As shown below, each of these compounds has a reported remaining activity at 10 µM value.
System tested: CDKs and other kinases (Homo sapiens, UniProt P06493)
Construct: other: CDK1B; residual activity (%) at 10 μM CDK1B; compound at 10 μM
Sequence (P06493 whole entry): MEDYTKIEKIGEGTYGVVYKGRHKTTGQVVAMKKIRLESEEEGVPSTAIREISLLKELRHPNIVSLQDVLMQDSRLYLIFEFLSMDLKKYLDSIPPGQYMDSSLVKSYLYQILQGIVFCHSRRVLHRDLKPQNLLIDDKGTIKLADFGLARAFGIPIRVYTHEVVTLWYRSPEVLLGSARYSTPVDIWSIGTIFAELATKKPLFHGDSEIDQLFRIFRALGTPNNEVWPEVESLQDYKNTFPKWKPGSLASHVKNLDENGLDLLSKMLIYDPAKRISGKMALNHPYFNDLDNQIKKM
Protocol: Radiometric kinase assay (Eurofins Pharma Discovery or Reaction Biology Corporation Kinase Profiler)
Type: biochemical
Condition info: CDK1B; compound at 10 μM; read-out: residual activity (%) at 10 μM CDK1B

Compound: Cc1cnc(N[C@H]2CC[C@H](N3CCC3)CC2)nc1-c1cnc2ccc(-c3ccccc3)cn12 [Compound 135]
remaining activity at 10 µM [%]: 61

Compound: C[C@]12C[C@]3(C)C[C@](O)(C1)C[C@](Nc1ncc(F)c(-c4cnc5ccc(-c6ccccc6)cn45)n1)(C2)C3 [Compound 110]
remaining activity at 10 µM [%]: 66

Compound: Cc1cnc(NC2CCCC(N)C2)nc1-c1cnc2ccc(Nc3cncnc3)cn12 (stereo not shown) [Compound 96]
remaining activity at 10 µM [%]: 63

Compound: CCOc1ccc(Nc2ccc3ncc(-c4nc(N[C@H]5CC[C@H](N)CC5)ncc4C)n3c2)cn1 [Compound 67]
remaining activity at 10 µM [%]: 38

Compound: N[C@H]1CC[C@H](Nc2ncc(Cl)c(-c3cnc4ccc(-c5ccc(N6CCNCC6)nc5)cn34)n2)CC1 [Compound 84]
remaining activity at 10 µM [%]: 51

Compound: Cc1cnc(N[C@H]2CC[C@H](N)CC2)nc1-c1cnc2ccc(-c3ccc(S(=O)(=O)N(C)C)cc3)cn12 [Compound 62]
remaining activity at 10 µM [%]: 87

Compound: COc1cnc(N[C@H]2CC[C@H](N)CC2)nc1-c1cnc2ccc(-c3ccccc3)cn12 [Compound 89]
remaining activity at 10 µM [%]: 10

Compound: CN[C@H]1CC[C@H](Nc2ncc(C)c(-c3cnc4ccc(-c5ccccc5)cn34)n2)CC1 [Compound 133]
remaining activity at 10 µM [%]: 22

Compound: Cc1cnc(N[C@H]2CC[C@H](C)CC2)nc1-c1cnc2ccc(-c3ccccc3)cn12 [Compound 151]
remaining activity at 10 µM [%]: 96

Compound: Cc1cnc(N[C@H]2CC[C@@H](N)CC2)nc1-c1cnc2ccc(-c3ccccc3)cn12 [Compound 91]
remaining activity at 10 µM [%]: 5

Compound: Cc1cnc(N[C@H]2CC[C@H](N)CC2)nc1-c1cnc2cc(C(F)(F)F)c(-c3ccccc3)cn12 [Compound 150]
remaining activity at 10 µM [%]: 45

Compound: Cc1cnc(N[C@H]2CC[C@H](N)CC2)nc1-c1cnc2ccc(NC(=O)c3ccc(F)cc3)cn12 [Compound 72]
remaining activity at 10 µM [%]: 69

Compound: Cc1cnc(N[C@H]2CC[C@H](N)CC2)nc1-c1cnc2cc(-c3ccccc3)ccn12 [Compound 53]
remaining activity at 10 µM [%]: 18

src = patent US11111245B2
